From: the RNAGym collection of RNA variant scans (doi:10.7554/elife.80360)

Exercise: state measured self-cleavage for each of the variants provided.
B1: HDV Ribozyme (parent)
chain: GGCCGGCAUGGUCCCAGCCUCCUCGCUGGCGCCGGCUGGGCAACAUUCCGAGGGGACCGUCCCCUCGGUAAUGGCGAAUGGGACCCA

Variants of: B1
Assay: self-cleavage, relative activity (ratio to wild type); higher = more cleavage; co-transcriptional
Write the number on its own, no unit after it.

Entry G10U G17C — recorded self-cleavage = 0.359

Entry G11C U79C — recorded self-cleavage = 0.121

Entry G5C G53A — recorded self-cleavage = 0.162

Entry G31U A70C — recorded self-cleavage = 0.161

Entry C18U C26A — recorded self-cleavage = 0.591

Entry A43G U47G — recorded self-cleavage = 0.997

Entry C14A G29A — recorded self-cleavage = 0.115

Entry U47C A56G — recorded self-cleavage = 0.665

Entry C13G U23A — recorded self-cleavage = 0.151

Entry G6U G35C — recorded self-cleavage = 0.0437

Entry G82U A83G — recorded self-cleavage = 0.137

Entry A45G A83C — recorded self-cleavage = 0.482

Entry A42G A70G — recorded self-cleavage = 0.623

Entry C24G G52A — recorded self-cleavage = 0.123

Entry G54A U60A — recorded self-cleavage = 0.758

Entry C4A C86A — recorded self-cleavage = 0.185

Entry G2C C57U — recorded self-cleavage = 0.073

Entry G73C A78G — recorded self-cleavage = 0.237

Entry G1C A70U — recorded self-cleavage = 0.115

Entry C49A U79A — recorded self-cleavage = 1.05

Entry G40U G81U — recorded self-cleavage = 0.0989

Entry U47C G50C — recorded self-cleavage = 0.831
